Experiment: adipocyte viability effects, profiling panel, cell-based, 3T3-L1 adipocytes, calcein-AM fluorescence, 48 h, basal (AID 1163); note: test concentration not given here
Settings: 3T3-L1 adipocytes viability, higher = more signal
Recorded Endpoint: z-score
Lab note: write the figure by itself, no unit.

{"Compound": "C[C@@H]1ON(c2cccc(C(=O)OC(C)(C)C)c2)[C@H](c2ccc(Br)cc2)[C@H]1C(=O)N1C(=O)OC[C@H]1Cc1ccccc1", "z-score": -0.941}
{"Compound": "O=C1[C@H]2C=C(Br)[C@H](C[C@@H]2c2ccccc2)[C@@]12CO2", "z-score": -0.559}

Form: compound = O=C1OCC=C[C@H]2OC34C=CCN(c5ccc6ccccc6c5)C(=O)[C@H]3N(CCCCCCO)C(=O)[C@@H]4[C@@H]12 (some centres undefined) ; z-score = -0.358

Form: compound = "O=C1O[C@H](c2ccccc2)[C@H](c2ccccc2)N2[C@H]1[C@@H](C(=O)O)[C@]1(C(=O)Nc3ccc(C#CCCO)cc31)[C@H]2c1ccc(O)cc1" ; z-score = 0.339
